Tested system: Cellular tumor antigen p53 (Homo sapiens) (UniProt P04637)
Sequence (P04637 whole entry, looked up): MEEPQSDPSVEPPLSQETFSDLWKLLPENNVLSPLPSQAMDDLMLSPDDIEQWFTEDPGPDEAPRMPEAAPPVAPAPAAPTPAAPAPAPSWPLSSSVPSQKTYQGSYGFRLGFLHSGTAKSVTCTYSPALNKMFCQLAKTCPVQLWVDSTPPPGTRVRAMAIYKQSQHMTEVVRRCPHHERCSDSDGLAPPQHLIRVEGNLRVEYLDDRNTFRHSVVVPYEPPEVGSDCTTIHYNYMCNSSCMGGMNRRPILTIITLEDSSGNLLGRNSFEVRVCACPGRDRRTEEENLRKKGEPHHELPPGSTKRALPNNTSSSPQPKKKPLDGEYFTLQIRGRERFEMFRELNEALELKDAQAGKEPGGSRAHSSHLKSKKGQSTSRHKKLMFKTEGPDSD
Assay remarks: nuclear p53 accumulation, HPV+ cells – imaging, p53-positive nuclei imaging, 24 h, 48 h (AID 1508601)
Details: 24/48 h, active compounds read high, concentration not given here
The whole screen tested about 5,700 compounds, of which about 85 (1%) were called active. Many of the other results were omitted from the sample, so actives are more common in it than they were.
Measured metric: p53-positive nuclei, normalised

> print(dat)
                                   molecule                             tested.system         assay.value
1  CCCCC[C@H](O)/C=C/[C@H]1C2CC(CO2)[C@@H]1C/C=C\CCCC(=O)O (stereo partly drawn)  Cellular tumor antigen p53 (Homo sapiens) (UniProt P04637)   0.109% (inactive)
2       Nc1ccccc1NC(=O)CCCCCCC(=O)Nc1ccccc1  Cellular tumor antigen p53 (Homo sapiens) (UniProt P04637)  -0.185% (inactive)

API: the following record is the query input.
Q: Give recorded p53-positive nuclei, normalised with Cellular tumor antigen p53 (Homo sapiens) (UniProt P04637) for the following molecule: `Cc1ccc(NC(=O)CCCCCC(=O)Nc2ccccc2N)cc1`
Result: -0.139% (inactive)
